test system: HeLa cells; test: Compound screen by flow cytometry: HeLa cell count as surrogate readout of cell viability (z-scoreHeLa); type: cell-based, human; settings: compound screen, HeLa cell count, replicate 1; note: test concentration or dose not given here
test readout: z-scoreHeLa rep 1
Reply with the value as a number alone.

Give recorded z-scoreHeLa rep 1. COc1cccc(CC(=O)N2CCc3cc(-c4cn(C)c5ncnc(N)c45)ccc32)c1 [GSK2608899A] -0.91

Give recorded z-scoreHeLa rep 1. Cc1cc(N2CCC(NS(=O)(=O)c3ccc(F)cc3)CC2)nc(Nc2cccc(C#N)c2)n1 [GSK1653537A] 0.73

Give recorded z-scoreHeLa rep 1. CC(C(=O)NC1CCN(c2ccnc(Nc3ccc(F)cc3)n2)C1)c1ccc(Cl)cc1 (stereo not shown) [GSK1379713A] 1.40

Give recorded z-scoreHeLa rep 1. Cc1c2ccc(N(C)c3ccnc(Nc4cccc(S(N)(=O)=O)c4)n3)cc2nn1Cc1ccccc1 [GW787226A] -2.16

----------
system: intracellular MRSA; assay type: cell-based, Staphylococcus aureus; settings: PKIS compound screen, MRSA-infected HeLa cells, replicate 1
test readout: z-scoreMRSA+ rep 1
Reply with the value as a number alone.

Give recorded z-scoreMRSA+ rep 1. O=C(Nc1n[nH]c2nc(-c3ccccc3)c(Br)cc12)C1CC1 -1.17

Give recorded z-scoreMRSA+ rep 1. Cc1cc(O)cc(C)c1/C=C/c1cncc(C(N)=O)c1 [GW435821X] -1.00

Give recorded z-scoreMRSA+ rep 1. Fc1ccc(-c2ncn(C3CCNCC3)c2-c2ccnc(Oc3ccc(Cl)cc3)n2)cc1 -1.41

Give recorded z-scoreMRSA+ rep 1. [O-][S+]1CCN(Cc2ccc(-c3ccc4ncnc(Nc5ccc(OCc6cccc(F)c6)c(Cl)c5)c4c3)o2)CC1 [GW576609A] -1.45

Give recorded z-scoreMRSA+ rep 1. CS(=O)(=O)CCNCc1cc(-c2cc3c(Nc4ccc(OCc5cccc(F)c5)c(Cl)c4)ncnc3s2)cs1 [GSK300014A] 0.52

Give recorded z-scoreMRSA+ rep 1. COc1cc(Nc2nccc(N3CCC(NC(=O)c4cc5ccccc5s4)C3)n2)cc(OC)c1OC (centres unmarked) [GSK1379760A] -0.49

Give recorded z-scoreMRSA+ rep 1. CC(C)S(=O)(=O)N1CCN(Cc2ccc3c(c2)nc(NC(=O)c2ccsc2)n3C[C@H](O)c2ccccc2)CC1 [GW635815X] -1.60

Give recorded z-scoreMRSA+ rep 1. CC(C)c1nc(-c2cccc(NS(=O)(=O)c3c(F)cccc3F)c2F)c(-c2ccnc(Nc3ccc(N4CCOCC4)nc3)n2)s1 [GSK2008607A] -2.77

----------
For each entry below, report its z-scoreHeLa rep 3 value.
test system: HeLa cells; experiment: Compound screen by flow cytometry: HeLa cell count as surrogate readout of cell viability (z-scoreHeLa); assay type: cell-based, human; conditions: PKIS compound screen, replicate 3; note: test concentration or dose not given here
Reply with the value as a number alone.

Give recorded z-scoreHeLa rep 3. COc1ccc(Nc2nccc(N3CCC(NC(=O)C(C)c4ccc(Cl)cc4)CC3)n2)cc1 (stereo not shown) [GSK1379812A] 0.15

Give recorded z-scoreHeLa rep 3. O=C(Nc1ccccc1F)NC1CCN(c2ccnc(Nc3ccc(F)cc3)n2)CC1 [GSK1379800A] 1.24

Give recorded z-scoreHeLa rep 3. NS(=O)(=O)c1ccc(N/C=C2\C(=O)Nc3ccc4ncsc4c32)cc1 [GW297361X] -0.88

Give recorded z-scoreHeLa rep 3. CN(C)S(=O)(=O)c1cc(-c2ccc3nccc(-c4cccc(S(N)(=O)=O)c4)c3c2)cnc1N [GSK1669921A] -1.10

----------
system: HeLa cells; experiment: Compound screen by flow cytometry: HeLa cell count as surrogate readout of cell viability (z-scoreHeLa); type: cell-based, human; settings: PKIS compounds raw data; replicate 1; HeLa cell count; note: test concentration or dose not given here
For each entry below, report its cell count rep 1 value.
Reply with the value as a number alone.

Give recorded cell count rep 1. O=C(Nc1n[nH]c2nc(-c3ccccc3)c(Br)cc12)C1CC1 5956

Give recorded cell count rep 1. O=C(Nc1n[nH]c2cc(-c3ccsc3)ccc12)C1CC1 6278

Give recorded cell count rep 1. O=C(Nc1ccccc1F)NC1CCN(c2ccnc(Nc3ccc(F)cc3)n2)C1 (stereo not drawn) [GSK1379722A] 7997

Give recorded cell count rep 1. Cc1cc(NCC(c2ccccc2)c2ccccc2)nc(NCc2ccc(C(F)(F)F)cc2)n1 [GW497681X] 2106

Give recorded cell count rep 1. Nc1ncc(-c2cccnc2)c2scc(-c3ccc4c(c3)CCN4C(=O)Cc3ccccc3)c12 [GSK683281A] 6640

Give recorded cell count rep 1. COc1cc(N2CCN(C(C)C)CC2)ccc1Nc1nc(Nc2ccc(F)cc2C(N)=O)c2cc[nH]c2n1 [GSK1220512A] 3725

Give recorded cell count rep 1. COc1cccc(-n2nc(C)c3c(N/N=C(\C)c4ccncc4)ncnc32)c1 [GW809885X] 4315

Give recorded cell count rep 1. Cc1cc(Cl)cc2c1NC(=O)C2=NNc1ccc(S(N)(=O)=O)cc1 [GW279320X] 5783

Give recorded cell count rep 1. [O-][S+]1CCN(Cc2ccc(-c3ccc4ncnc(Nc5ccc(OCc6ccccc6)c(Cl)c5)c4c3)o2)CC1 [GW583373A] 8794

----------
For each entry below, report its cell count rep 1 value.
system: HeLa cells; test: Compound screen by flow cytometry: HeLa cell count as surrogate readout of cell viability (z-scoreHeLa); assay type: cell-based, human; conditions: PKIS compound screen raw data, HeLa cell count, replicate 1; note: test concentration or dose not given here
Reply with the value as a number alone.

Give recorded cell count rep 1. COc1cc(C)c(N(C)C(=O)CN(C)C)cc1Nc1nc(Nc2cccc(F)c2C(N)=O)c2cc[nH]c2n1 [GSK2219385A] 14421

Give recorded cell count rep 1. COC(=O)Nc1nc2ccc(Oc3ccc(NC(=O)Nc4cc(C(F)(F)F)ccc4F)cn3)cc2[nH]1 [GW681170A] 5819

Give recorded cell count rep 1. O=C(NCCNc1ccnc(Nc2ccc(F)cc2)n1)Nc1ccccc1F [GSK1379880A] 4656

Give recorded cell count rep 1. CN1CCN(Cc2ccc(NC(=O)Nc3ccc(N(C)c4ccnc(Nc5ccc(CS(C)(=O)=O)cc5)n4)cc3)cc2)CC1 [GW827654A] 30631

----------
tested on: HeLa cells; test: Compound screen by flow cytometry: HeLa cell count as surrogate readout of cell viability (z-scoreHeLa); assay type: cell-based, human; details: PKIS compounds raw data; replicate 1; HeLa cell count; note: test concentration or dose not given here
For each entry below, report its cell count rep 1 value.
Reply with the value as a number alone.

Give recorded cell count rep 1. Cc1nnc(-c2ccc(C)c(-c3ccc(C(=O)NCc4ccc(Cl)cc4)cc3)c2)o1 [GW708893X] 5153

Give recorded cell count rep 1. Cc1ccc(NC(=O)Nc2ccccc2)cc1-c1ccc(C(=O)Nc2ccncc2)cc1 [GSK1398471A] 1939

Give recorded cell count rep 1. O=C(Nc1ccccc1F)NC1CCN(c2ccnc(Nc3ccc(F)cc3)n2)CC1 [GSK1379800A] 7378

Give recorded cell count rep 1. COc1ccccc1-c1cc(/C=C2\C(=O)Nc3ncc(Br)cc32)cc(Br)c1O [GW442130X] 3648

Give recorded cell count rep 1. CS(=O)(=O)CCNCc1ccc(-c2ccc3ncnc(Nc4ccc(OCc5ccccc5)c(Br)c4)c3c2)o1 [GW580496A] 5658

Give recorded cell count rep 1. O=S(=O)(CCOCc1ccc(-c2ccc3ncnc(Nc4ccc(OCc5cccc(F)c5)c(Cl)c4)c3c2)o1)c1ccccc1 [GW615311X] 4217

Give recorded cell count rep 1. Cn1cc(-c2cnc(N)c3c(-c4ccc5c(c4)CCN5C(=O)Cc4ccccc4)csc23)cn1 [GSK2593074A] 857

Give recorded cell count rep 1. CCCN(CCS(C)(=O)=O)Cc1ccc(-c2ccc3ncnc(Nc4ccc(OCc5cccc(F)c5)c(Cl)c4)c3c2)o1 [GW621823A] 4961

----------
For each entry below, report its z-scoreHeLa rep 3 value.
tested on: HeLa cells; assay: Compound screen by flow cytometry: HeLa cell count as surrogate readout of cell viability (z-scoreHeLa); assay type: cell-based, human; conditions: PKIS compound screen, HeLa cell count, replicate 3; note: test concentration or dose not given here
Reply with the value as a number alone.

Give recorded z-scoreHeLa rep 3. COc1cc(Nc2nccc(N3CCC(NC(=O)Nc4cccc(C(C)=O)c4)C3)n2)cc(OC)c1OC (centres unmarked) [GSK1379753A] -0.29

Give recorded z-scoreHeLa rep 3. Cn1cncc1-c1cc2c(Nc3ccc(OCc4ccccc4)cc3)ncnc2cn1 [GW281179X] -1.49

Give recorded z-scoreHeLa rep 3. O=C(O[C@H]1CN[C@H](C#Cc2cc3ncnc(Nc4ccc5c(cnn5Cc5ccccc5)c4)c3s2)C1)N1CCOCC1 [GSK200398A] -1.65

Give recorded z-scoreHeLa rep 3. CN(C)CCCNc1nccc(-c2c(-c3ccc(F)cc3)nn3cc(C(F)(F)F)ccc23)n1 [GW618013A] 0.75

Give recorded z-scoreHeLa rep 3. CCS(=O)(=O)c1ccc(OC)c(Nc2ncc(-c3cccc(-c4ccccc4F)c3)o2)c1 [GW678313X] 1.26

Give recorded z-scoreHeLa rep 3. COC(=O)c1cccc(NC(=O)NC2CCN(c3ccnc(Nc4ccc(OC)cc4)n3)C2)c1 (centres unmarked) [GSK1379746A] -0.90

Give recorded z-scoreHeLa rep 3. CCCNC(=O)Nc1ccc(N(C)c2ccnc(NC3CC3)n2)cc1 [GW818933X] -0.45

Give recorded z-scoreHeLa rep 3. Nc1ncc(-c2cccnc2)c2scc(-c3ccc4c(c3)CCN4C(=O)Cc3ccccc3)c12 [GSK683281A] -0.78
